The measured values listed here are drawn from PubChem BioAssay AID1159580.

Assay Details: chemical genetic growth profiling, strain panel (AID 1159580);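 further: tested at 20 µM; growth read once vehicle control cultures reached saturation at 30 °C; 1 = growth at the plate median or of vehicle wells; lower values mean less growth of the strain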
Condition Context: S. cerevisiae deletion strains, growth OD, locus YCL061C, strain MRC1 (second series), hits give low values
Hit rate of the full screen: of about 5,500 compounds, about 2,000 (36%) were called active. Roughly 18% stayed inconclusive and do not appear here. This is one part of the list.
Reported Endpoint: normalized growth

Compound | Measured
CCCCCCCCCCCCCCCCCCOC[C@H](COP(=O)([O-])OCC[N+](C)(C)C)OC | 1.02
CCCC[N+]1(C)C2CC(OC(=O)[C@H](CO)c3ccccc3)CC1C1OC12 (stereo not given in full) | 0.996
NC(N)=Nc1nc(CSCCC(N)=NS(N)(=O)=O)cs1 | 1.01
NC(=NCCC[C@H](N)C(=O)O)NO | 1.01
O=C(O)[C@H]1NCCC[C@H]1C(=O)O | 0.986
CCOC(=O)c1ncn2c1CN(C)C(=O)c1cc(F)ccc1-2 | 1
Nc1cc(Cl)c(NC2=NCCN2)c(Cl)c1 | 1
CCCC(=O)NCCc1c2n(c3ccc(OC)cc13)CCCc1ccccc1-2 | 1.01
COC(=O)c1c(C)[nH]c(C)c1C(=O)c1ccccc1Cc1ccccc1 | 1
CN(C)CCCCSC(=N)N | 1.02

====

Assay Details: chemical genetic growth profiling, strain panel (AID 1159580);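 further: tested at 20 µM; growth read once vehicle control cultures reached saturation at 30 °C; 1 = growth at the plate median or of vehicle wells; lower values mean less growth of the strain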
Condition Context: S. cerevisiae deletion strains, growth OD, locus YIL066C, strain RNR3
In all, about 5,500 compounds went through this assay and about 2,000 (36%) were called active. About 18% were inconclusive and are not listed. Rule as the data show it: active = normalized growth mostly below about 0.91 (no sharp cut-off); inconclusive = no clear call, values can overlap the other calls; inactive = mostly above about 0.92. Some of the results follow.
Classes used: yes for active, no for inactive

Compound | Class
Cc1cc(C(C)(C)CC(C)(C)C)ccc1OCCOCC[N+](C)(C)Cc1ccccc1 | yes
COc1cc(OC)c2c(c1)OC(c1ccc(OC)c(OC)c1)C(O)C2 (stereo not given) | no
CCCCOc1ccc(C(=O)CCN2CCCCC2)cc1 | yes
Cc1ccc(C(=O)C(C)CN2CCCCC2)cc1 (stereo not given) | no
CCC(C(=O)O)c1ccccc1 (stereo not given) | no
CN1Cc2c(ccc3c2OCO3)C2C(O)Cc3cc4c(cc3C21)OCO4 (stereo not given) | no
COc1cc(OC)c2c(c1)O[C@H](c1ccc(OC)c(OC)c1)[C@@H](O)C2 | no
CCCCOc1ccc(OCCCN2CCOCC2)cc1 | yes
COc1cccc2c1CCC1CC(=O)CCC21C (stereo not given) | no
COc1ccc2c(c1)[C@@]1(C)CCC(=O)C[C@H]1CC2 | no
CCCCCCCCCCCCC[N+](C)(C)Cc1ccccc1 | yes
CC1(C)C2CC[C@]3(C)C(C(=O)C=C4[C@@H]5C[C@@](C)(C(=O)O)CC[C@]5(C)CC[C@]43C)[C@@]2(C)CC[C@@H]1O (stereo not given in full) | no
CN1CCc2cc3c(cc2C1O)OCO3 (stereo not given) | no
COc1ccc2c(c1)OC[C@@H](Cc1ccc(OC)c(OC)c1)[C@@H]2O | no
Cc1ccc2c(c1)CC[C@H]1CC(=O)CC[C@]21C | no

====

Assay Details: chemical genetic growth profiling, strain panel (AID 1159580);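 further: tested at 20 µM; growth read once vehicle control cultures reached saturation at 30 °C; 1 = growth at the plate median or of vehicle wells; lower values mean less growth of the strain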
Condition Context: S. cerevisiae deletion strains, growth OD, locus YPR163C, strain tif3
About 2,000 (36%) of roughly 5,500 compounds were called active. Another 18% or so got no clear call; they are omitted. Rule as the data show it: active = normalized growth mostly below about 0.91 (no sharp cut-off); inconclusive = no clear call, values can overlap the other calls; inactive = mostly above about 0.92. Some of the results follow.
Possible outcomes: active, inactive

Molecule | Class
CCCCCC(C)N (stereo not drawn) | inactive
OCc1ccccc1O[C@@H]1O[C@H](CO)[C@@H](O)[C@H](O)[C@H]1O | inactive
C=CC(C)(C)c1c2c(c(O)c3c(=O)c4ccc(O)c(O)c4oc13)C=CC(C)(C)O2 | active
C=CCc1ccc2c(c1)OCO2 | inactive
CC(C)(C)CC(C)(C)c1ccc(OCCOCC[N+](C)(C)Cc2ccccc2)cc1 | inactive
Oc1ccc(O)cc1 | inactive
CC1(O)/C=C/C=C(\CO)C2CC(C)(C)C2(O)CC1 (stereo not drawn) | inactive
N#Cc1c(Cl)c(Cl)c(Cl)c(C#N)c1Cl | inactive
NC(=O)N1c2ccccc2CC(=O)c2ccccc21 | inactive
CC(=O)O[C@@](C)(CCC=C(C)C)C1CC=C(C)CC1 (stereo partly drawn) | inactive
COc1ccc2cc1Oc1ccc(cc1)C[C@H]1c3cc(c(OC)cc3CCN1C)Oc1c(OC)c(OC)cc3c1[C@H](C2)N(C)CC3 | inactive
CC(C)CC1C(=O)N2CCC[C@H]2C2(O)O[C@](NC(=O)C3C=C4c5cccc6[nH]c(Br)c(c56)C[C@H]4N(C)C3)(C(C)C)C(=O)N12 (stereo partly drawn) | inactive
CCC(C(N)=O)c1ccccc1 (stereo not drawn) | inactive
O=C(O)c1cc(=O)c2ccc(Cl)cc2[nH]1 | inactive
COc1cc(OC)c2c(c1)OC(c1ccccc1)CC2=O (stereo not drawn) | inactive
O=C(O)C1C(O)CCC2CN3CCc4c([nH]c5ccccc45)C3CC21 (stereo not drawn) | inactive
Oc1c(Cl)c(Cl)c(Cl)c(Cl)c1Cl | active
c1ccc(CC2=NCCN2)cc1 | active
C[N+](C)(C)CC(=O)[O-] | inactive
O=C(O)c1ccccc1OP(=O)(O)O | inactive
COC(=O)COc1ccc(Cl)cc1Cl | inactive
C[N+](C)(C)CCOP(=O)([O-])OP(=O)(O)OC[C@H]1OC(n2ccc(N)nc2=O)[C@H](O)[C@@H]1O (stereo partly drawn) | inactive
COc1ccc(C[C@H]2NC[C@H](O)[C@H]2OC(C)=O)cc1 | active
COc1cc(OC)c2c(c1)O[C@H](c1ccc(OC)c(OC)c1)[C@@H](O)C2 | inactive
CC[C@@H](CO)NCCN[C@@H](CC)CO | inactive
CCCCCC(=O)O[C@]1(C(C)=O)CCC2C3CCC4=CC(=O)CC[C@]4(C)C3CC[C@@]21C (stereo partly drawn) | inactive
COc1cc(O)c2c(=O)cc(C)oc2c1CC=C(C)C | active
Cc1ccc(O)cc1 | inactive
CC1(C)C2CC[C@]3(C)C(C(=O)C=C4[C@@H]5C[C@@](C)(C(=O)O)CC[C@]5(C)CC[C@]43C)[C@@]2(C)CC[C@@H]1OC(=O)CCC(=O)O (stereo partly drawn) | inactive
Cc1cc(=O)c2c(O)cc(O)c(C)c2o1 | inactive
CC(=C(CCOP(=O)(O)O)SC(=O)c1ccccc1)N(C=O)Cc1cnc(C)nc1N | inactive
COc1c(O)cc2oc3cc(O)c(CC=C(C)C)c(O)c3c(=O)c2c1CC=C(C)C | active
CCC(C(=O)O)c1ccccc1 (stereo not drawn) | inactive
